Here, each record is paired with measured IC50 data.
Target: UniProt P31749
Assay: Luciferase-coupled chemiluminescence kinase assay (ATP consumption)
Assay type: biochemical
Settings: read-out: AKT-1 IC50
MEASURED PROPERTY: IC50

> print(dat)
                                    compound   data.value
 1  CCc1n[nH]c2ncnc(N3CC4CC3CN4c3cccc(Cl)c3)c12 (stereo not drawn) [Entry 344]   1 to 10 µM
 2  Cc1ccc(Cl)cc1N1CCN(c2ncnc3[nH]nc(CCC(=O)O)c23)CC1 [Entry 370]   1 to 10 µM
 3  CCc1n[nH]c2ncnc(N3CCN(c4cc(Cl)cc(CNCCN(C)C)c4OC)CC3)c12 [Entry 378]   1 to 10 µM
 4  Cc1ccc(Cl)cc1N1CCN(c2ncnc3[nH]nc(C=C4C[C@@H]5CN(C(=O)OCc6ccccc6)C[C@@H]5C4)c23)CC1 [Entry 395]   1 to 10 µM
 5  Cc1ccc(Cl)cc1N1CCN(c2ncnc3[nH]nc(-c4ccc(OCCN5CCOCC5)cc4)c23)CC1 [Entry 373]   1 to 10 µM
 6  Cc1ccc(Cl)cc1N1CCN(c2ncnc3[nH]nc(Br)c23)CC1 [Entry 329]  0.1 to 1 µM
 7  c1ccc(N2CCN(c3ncnc4[nH]ncc34)CC2)cc1 [Entry 297]      ≥ 10 µM
 8  Cc1ccc(Cl)cc1N1CCN(c2ncnc3[nH]nc(C4=CCNCC4)c23)CC1 [Entry 401]   1 to 10 µM
 9  Cc1ccc(Cl)cc1N1CCN(c2nc(C(C)C)nc3[nH]ncc23)CC1 [Entry 326]   1 to 10 µM
10  Cc1ccc(Cl)cc1N1CCN(c2ncnc3[nH]nc(CCCO)c23)CC1 [Entry 371]   1 to 10 µM
11  Clc1ccc(N2CCN(c3ncnc4[nH]ccc34)CC2)cc1 [Entry 310]      ≥ 10 µM
12  Clc1ccc(N2CCN(c3ncnc4[nH]cnc34)CC2)cc1 [Entry 308]      ≥ 10 µM
13  COc1ccccc1-c1n[nH]c2ncnc(N3CCN(c4cc(Cl)ccc4C)CC3)c12 [Entry 363]   1 to 10 µM
14  COC(=O)/C=C/c1n[nH]c2ncnc(N3CCN(c4cc(Cl)ccc4C)CC3)c12 [Entry 372]   1 to 10 µM
15  Clc1ccccc1N1CCN(c2ncnc3[nH]ccc23)CC1 [Entry 311]      ≥ 10 µM
16  COc1ccccc1N1CCN(c2ncnc3[nH]cnc23)CC1 [Entry 307]      ≥ 10 µM
17  Cc1ccccc1N1CCN(c2ncnc3[nH]ccc23)CC1 [Entry 301]      ≥ 10 µM
18  COc1ccc(-c2n[nH]c3ncnc(N4CCN(c5cc(Cl)ccc5C)CC4)c23)cc1 [Entry 356]   1 to 10 µM

====

Each entry below lists one item and its recorded IC50 value.
Target: UniProt P31749
Assay: Luciferase-coupled chemiluminescence kinase assay (ATP consumption)
Format: biochemical
Conditions: Table 1; class symbols per key; read-out: AKT-1 IC50
MEASURED PROPERTY: IC50

> print(dat)
                              record.smiles    study.system  measured.property   data.value
1  Cc1c(CCCN2CCN(C)CC2)cc(Cl)cc1N1CCN(c2ncnc3[nH]nc(C(F)(F)F)c23)CC1  UniProt P31749               IC50  0.1 to 1 µM
2  Cc1ccc(C(=O)NCCN(C)C)cc1N1CCN(c2ncnc3[nH]nc(Br)c23)CC1  UniProt P31749               IC50   1 to 10 µM
3  CC(=O)c1ccc(N2CCN(c3ncnc4[nH]nc(Br)c34)CC2)cc1  UniProt P31749               IC50   1 to 10 µM
4  CCc1n[nH]c2ncnc(N3CCN(c4cc(F)cc(Br)c4Cl)CC3)c12  UniProt P31749               IC50      ≥ 10 µM
5  CCc1n[nH]c2ncnc(N3CCN(c4ncccc4C(N)=O)CC3)c12  UniProt P31749               IC50      ≥ 10 µM
6  Cc1ccc(C(=O)NCC(C)C)cc1N1CCN(c2ncnc3[nH]nc(Cl)c23)CC1  UniProt P31749               IC50   1 to 10 µM
7  CCN1CCN(CCCOc2cc(Cl)cc(N3CCN(c4ncnc5[nH]nc(Br)c45)CC3)c2C)CC1  UniProt P31749               IC50     < 0.1 µM
8  O=[N+]([O-])c1ccccc1N1CCN(c2ncnc3[nH]nc(Br)c23)CC1  UniProt P31749               IC50      ≥ 10 µM

====

// reported IC50 for each item listed
Target: p70S6K (Homo sapiens, UniProt P23443)
Sequence (P23443 whole entry): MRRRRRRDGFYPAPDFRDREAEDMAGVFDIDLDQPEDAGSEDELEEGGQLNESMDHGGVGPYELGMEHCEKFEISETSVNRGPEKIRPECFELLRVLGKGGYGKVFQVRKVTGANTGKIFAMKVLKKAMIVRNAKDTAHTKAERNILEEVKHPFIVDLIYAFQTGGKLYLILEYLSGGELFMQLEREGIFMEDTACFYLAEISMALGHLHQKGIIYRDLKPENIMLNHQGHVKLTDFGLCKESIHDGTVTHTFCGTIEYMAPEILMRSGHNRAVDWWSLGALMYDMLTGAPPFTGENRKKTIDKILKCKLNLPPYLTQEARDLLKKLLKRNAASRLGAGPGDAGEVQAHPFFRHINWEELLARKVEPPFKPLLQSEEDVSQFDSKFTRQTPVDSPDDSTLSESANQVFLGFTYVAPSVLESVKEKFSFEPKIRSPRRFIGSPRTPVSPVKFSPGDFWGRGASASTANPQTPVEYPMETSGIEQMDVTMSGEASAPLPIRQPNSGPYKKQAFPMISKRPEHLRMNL
Test: Luciferase-coupled chemiluminescence kinase assay (ATP consumption)
Assay type: biochemical
Settings: Table 1; class symbols per key
MEASURED PROPERTY: IC50

> print(dat)
                               record.smiles  measured.property        data.value
 1  Cc1c(NCCN2CCCC2)cc(Cl)cc1N1CCN(c2ncnc3[nH]nc(C4CC4)c23)CC1               IC50          < 100 nM
 2  Cc1c(OCCCN2CCOCC2)cc(Cl)cc1N1CCN(c2ncnc3[nH]nc(C(F)(F)F)c23)CC1               IC50          < 100 nM
 3  Cc1c(OCCCN2CCCCC2)cc(Cl)cc1N1CCN(c2ncnc3[nH]nc(C(F)(F)F)c23)CC1               IC50          < 100 nM
 4  Cc1c(Br)cc(Cl)cc1N1CCN(c2nc(N)nc3[nH]ncc23)CC1               IC50  1000 to 10000 nM
 5  Cc1c(NCCN2CCCC2)cc(Cl)cc1N1CCN(c2ncnc3[nH]nc(CC(C)C)c23)CC1               IC50          < 100 nM
 6  COc1cc(OC)cc(N2CCN(c3ncnc4[nH]nc(Br)c34)CC2)c1               IC50          < 100 nM
 7  Cc1c(CCCN2CCCC2)cc(Cl)cc1N1CCN(c2ncnc3[nH]nc(/C=C/C(=O)O)c23)CC1               IC50          < 100 nM
 8  CCc1n[nH]c2ncnc(N3CCN(c4cccc(OCCN(CC)CC)c4C)CC3)c12               IC50    100 to 1000 nM
 9  CCC(=O)c1cc(NCCN2CCCC2)c(C)c(N2CCN(c3ncnc4[nH]nc(Br)c34)CC2)c1               IC50          < 100 nM
10  Cc1c(NCCN(C)C)cc(C(=O)NC(C)C)cc1N1CCN(c2ncnc3[nH]nc(Br)c23)CC1               IC50          < 100 nM
11  Cc1c(NCCN2CCCC2)cc(CO)cc1N1CCN(c2ncnc3[nH]nc(Br)c23)CC1               IC50          < 100 nM
12  N#Cc1nccnc1N1CCN(c2ncnc3[nH]nc(Br)c23)CC1               IC50    100 to 1000 nM
13  CCc1n[nH]c2ncnc(N3CCN(c4cc(Cl)cc(OCCN(CC)CC)c4)CC3)c12               IC50    100 to 1000 nM
14  Brc1n[nH]c2ncnc(N3CCN(c4ccc(OCc5ccccc5)cc4)CC3)c12               IC50    100 to 1000 nM
15  Cc1ccc(N2CCN(c3ncnc4[nH]nc(Br)c34)CC2)cc1NCCN1CCCC1               IC50    100 to 1000 nM
16  Cc1c(NCCN2CCCC2)cc(OCCC(F)(F)F)cc1N1CCN(c2ncnc3[nH]nc(Br)c23)CC1               IC50          < 100 nM
17  CCc1n[nH]c2ncnc(N3CCN(c4nc(C)cc(C)n4)CC3)c12               IC50  1000 to 10000 nM

====

Biological target: AktK (Homo sapiens)
Sequence (P31749 whole entry): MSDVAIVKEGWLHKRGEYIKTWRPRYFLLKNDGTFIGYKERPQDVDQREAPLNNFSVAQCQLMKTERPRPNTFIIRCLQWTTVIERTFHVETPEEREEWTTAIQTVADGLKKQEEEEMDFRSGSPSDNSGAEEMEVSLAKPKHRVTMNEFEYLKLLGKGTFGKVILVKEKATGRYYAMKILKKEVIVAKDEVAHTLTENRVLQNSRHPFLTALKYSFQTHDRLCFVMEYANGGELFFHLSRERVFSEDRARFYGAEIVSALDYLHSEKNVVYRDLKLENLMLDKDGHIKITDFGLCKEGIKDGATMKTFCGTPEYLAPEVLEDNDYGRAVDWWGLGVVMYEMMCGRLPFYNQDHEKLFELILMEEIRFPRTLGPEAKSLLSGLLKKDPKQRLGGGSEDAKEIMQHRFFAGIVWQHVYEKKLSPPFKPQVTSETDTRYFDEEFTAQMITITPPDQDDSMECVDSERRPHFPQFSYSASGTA
Experiment: Luciferase-coupled chemiluminescence kinase assay (ATP consumption)
Type: biochemical
Settings: Table 1; class symbols per key; read-out: AKT-1 IC50
List of IC50 values.
MEASURED PROPERTY: IC50

> print(dat)
                                   molecule         study.system   data.value
1  Cc1c(NCCN2CCCC2)cc(-c2nccs2)cc1N1CCN(c2ncnc3[nH]nc(Br)c23)CC1 [Entry 233]  AktK (Homo sapiens)     < 0.1 µM
2  Cc1ccc(-c2ccccc2OCCN2C(=O)CCC2=O)cc1N1CCN(c2ncnc3[nH]nc(Br)c23)CC1 [Entry 281]  AktK (Homo sapiens)     < 0.1 µM
3  Clc1ccc(N2CCN(c3ncnc4[nH]nc(Br)c34)CC2)c(Cl)c1 [Entry 77]  AktK (Homo sapiens)      ≥ 10 µM
4  Cc1ccc(C(=O)O)cc1N1CCN(c2ncnc3[nH]nc(Br)c23)CC1 [Entry 180]  AktK (Homo sapiens)  0.1 to 1 µM
5  CCc1n[nH]c2ncnc(N3CCN(c4cc(Cl)cc(OCCCN5CCCC5)c4C)CC3)c12 [Entry 35]  AktK (Homo sapiens)  0.1 to 1 µM
6  Cc1c(CCC[n+]2ccccc2)cc(-c2ccccc2)cc1N1CCN(c2ncnc3[nH]nc(Br)c23)CC1 [Entry 232]  AktK (Homo sapiens)     < 0.1 µM
7  Cc1ccc(N2CCN(c3ncnc4[nH]nc(Br)c34)CC2)cc1C [Entry 96]  AktK (Homo sapiens)      ≥ 10 µM
8  CCc1n[nH]c2ncnc(N3CCN(c4cc(Br)cc(N)c4C)CC3)c12 [Entry 165]  AktK (Homo sapiens)  0.1 to 1 µM
